Origin of the recorded values: ChEMBL document CHEMBL2010699

test system: Coxsackievirus B3; experiment: Antiviral activity against Coxsackievirus B3 infected in african green monkey Vero cells assessed as inhibition virus-induced cell death by MTS assay; assay type: functional, organism-based; conditions: Enterovirus B
experimental.endpoint: EC90

compound | result
CCCCCCO[C@H]1C[C@H]2C[C@@H]1C[C@@H]2n1cnc2c(Cl)ncnc21 (relative stereo) | > 27 µM
CCCCCCCCCC(=O)O[C@H]1C[C@H]2C[C@@H]1[C@H](n1cnc3c(Cl)ncnc31)C2 (relative stereo) | > 44 µM
CCCCCCCC(=O)O[C@H]1C[C@H]2C[C@@H]1[C@H](n1cnc3c(Cl)ncnc31)C2 (relative stereo) | > 50 µM
CCCCCC(=O)O[C@H]1C[C@H]2C[C@@H]1[C@H](n1cnc3c(Cl)ncnc31)C2 (relative stereo) | > 70 µM
O=C(OC1CC2CC1CC2n1cnc2c(Cl)ncnc21)c1ccccc1 (stereo unspecified) | > 150 µM
CCCCCCCCCC(=O)O[C@H]1C[C@H]2C[C@@H]1C[C@@H]2n1cnc2c(Cl)ncnc21 (relative stereo) | > 47 µM
